Reference for the values: the nanobody polyreactivity screen of Harvey et al. (2022)

run-description: yeast display, Sf9 membrane polyspecificity reagent, FACS + sequencing; frameworks hold sequencing errors
readout: polyreactivity (PSR sort gate)

1) QVQLVESGGGLVQAGGSLRLSCAASGSTFWYYTMGWYRQAPGKERELVAAISKSGTNTYYADSVKGRFTISRDQAKNTVYLQMNSLKPEDTAVDYCNALTKTGTPPDYDYWGQGTQVTVSS	high polyreactivity
2) QVQLVESGGGLVQAGGSLRLSCAASGLIFYDNMGWYRQAPGKERELVAAISSSGGSTSYADSVKGRFTISRDNAKNTVYFLMNSLKPEDTAVYYCAADQYYYWYTHQSIGYDYWGQGTQVTVSS	low polyreactivity
3) QVQLVESGGGLVQAGGSLRLSCAASGRTFRSNAMGWYRQAPGKERELVATISGRGGSTYYADSVKGRFTISRDNAKNTVYLQMNSLKPEDTAVYYCAKRTTLIRDYEYWGQGTQVTVSS	high polyreactivity
4) QVQLVESGGGLVQAGVSLRLSCAASGFTFPWYAMGWYLQAPGKERELVAAISWTGGSTYYADSVKGRFTSSRDNPKNTVNLQMLSLKPEDTAVYYCAVGIYDHLYNHEYWGHGTQVTVSS	low polyreactivity
5) QVQLVESGGGLVQAGGSLRLSCASSGRTFAYNAMGRYRQAPGKERELVAAITSSGGSTYYADSVKGRFTISRDNAKNTVYLQMNSLKPEDTAVYYCASYVRPDYYAIHVDYWGQGTQVTVSS	low polyreactivity
6) QVQLVESGGGLVQAGGRLRLSCAASGIIFPRYAMGWYRQAPGKERELVAAISGSGVGTYYADSVKGRFTISRDYAKNTVYIQMNSLKPEDTAVYSCATRYQWGGPYYRYDYWGQGTQVTVSS	high polyreactivity
7) QVQLVESGGGLVQAGGSLRLSCAASGFTFPEYAMGWYRQAPGKERELVAAISSGDSTNYADSVKGRLTISRDNAKNTVYLQMNILKPEDTAVDYCAADYYDYYYEYEYWGQGTQVTVSS	low polyreactivity
8) QVQLVESGGGLVQAGGSLRLSCAASGSIFWANAMGWYRQAPGKERELVAAISSSGGGTYYADSVKGRFTISRDNAKNTVYLQMNSLKPVDTAVYYCNKLRLDYYEQGDYWGQGSQVTVSS	high polyreactivity
9) QVQLVESGGGLVQAGGSLRLSCAASGSISYFNDMGWYRQAPGKERELVAAIRDSGGITYADSVKGRFTISRDNAKNTVYLQMNSLKPEDTAVYYCDKDAGLQKYHHDYWGQGTQVTVSS	low polyreactivity
10) QVQLVESGGGLVQAGGSLRLSCAASGFTLYHYAMGWYRQAPGKERELVAAITTSGSRTYYADSVKGRFTISRDNAKNTVYLQMNSLKPEDTAVYYCNAVASSTEYDYWGQGTQVTVSS	high polyreactivity

// lookup polyreactivity (PSR sort gate) for QVQLVESGGGIVQAGGSLRLSCAASGSTFYVNVMGRYRQAPGKERELVAGITIRDGATYYADSVKGRFTISRDNAKITVYLQMNSLNPEDTAVYYCARAGDGEYKRDYWGQGTQVTVSS
low polyreactivity
